Each recorded value in this set is attributed to patent US8618303B2.

For each entry below, report its Ki value.
- MEASURED TARGET: human NK3 receptor (Homo sapiens (Human), UniProt P29371)
- Sequence (P29371 whole entry): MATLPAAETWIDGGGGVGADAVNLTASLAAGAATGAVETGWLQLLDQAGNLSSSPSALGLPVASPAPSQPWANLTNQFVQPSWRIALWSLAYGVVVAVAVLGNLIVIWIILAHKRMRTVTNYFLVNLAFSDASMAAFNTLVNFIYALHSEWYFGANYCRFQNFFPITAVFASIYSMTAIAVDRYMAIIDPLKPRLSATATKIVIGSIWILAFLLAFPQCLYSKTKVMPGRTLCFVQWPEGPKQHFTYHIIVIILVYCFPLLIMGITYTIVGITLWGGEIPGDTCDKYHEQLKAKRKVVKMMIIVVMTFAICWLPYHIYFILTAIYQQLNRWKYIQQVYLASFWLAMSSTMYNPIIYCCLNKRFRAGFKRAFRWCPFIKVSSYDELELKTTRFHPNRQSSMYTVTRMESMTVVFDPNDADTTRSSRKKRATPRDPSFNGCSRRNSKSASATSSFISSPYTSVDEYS
- EXPERIMENTAL PROTOCOL: [3H]SR142801 competition binding assay
- ASSAY CONDITIONS: membranes from HEK293 cells transiently expressing recombinant human NK3 receptor; [3H]SR142801; Ki from IC50 by Cheng-Prussoff; read-out: Ki (uM) hNK3
Report only the number, with the unit µM understood.

Q) Give reported Ki value for CC(C)C(=O)N1CCC(C(=O)N2C[C@@H](N(C)C(=O)Oc3ccc(F)cc3)[C@](C)(c3ccc(Cl)cc3)C2)CC1 (racemic) [Example 24]
A) 0.0392

Q) Give reported Ki value for Cc1ccc(N2CCC(C(=O)N3C[C@H](c4ccc(Cl)cc4)[C@@](C)(N(C)C(=O)Oc4ccc(F)cc4)C3)CC2)nc1 (racemic) [Example 8]
A) 0.013

Q) Give reported Ki value for CN(C(=O)Oc1ccc(F)cc1)[C@@]1(C)CN(C(=O)C2CCN(c3ccc(C(F)(F)F)cn3)CC2)C[C@@H]1c1ccc(Cl)cc1 (racemic) [Example 15]
A) 0.0115

Q) Give reported Ki value for CC(=O)N1CCC(C(=O)N2C[C@@H](N(C)C(=O)Oc3ccc(F)cc3)[C@](C)(c3ccc(Cl)cc3)C2)CC1 (racemic) [Example 27]
A) 0.051

Q) Give reported Ki value for CN(C(=O)Oc1ccc(F)cc1)[C@@]1(C)CN(C(=O)C2CCOCC2)C[C@@H]1c1ccc(Cl)cc1 (racemic) [Example 5]
A) 0.0864

Q) Give reported Ki value for CN(C(=O)Oc1ccc(F)cc1)[C@@]1(C)CN(C(=O)C2CCN(C(=O)C3(C)CC3)CC2)C[C@@H]1c1ccc(Cl)cc1 (racemic) [Example 7]
A) 0.005

Q) Give reported Ki value for Cc1cc(C(=O)N2C[C@H](c3ccc(Cl)cc3)[C@@](C)(N(C)C(=O)Oc3ccc(F)cc3)C2)cnn1 (racemic) [Example 6]
A) 0.0649

Q) Give reported Ki value for CN(C(=O)Oc1ccc(F)cc1)[C@@]1(C)CN(C(=O)C2CCN(c3ccc(C#N)nc3)CC2)C[C@@H]1c1ccc(Cl)cc1 (racemic) [Example 18]
A) 0.0028

Q) Give reported Ki value for CC(=O)c1ccc(N2CCC(C(=O)N3C[C@H](c4ccc(Cl)cc4)[C@@](C)(N(C)C(=O)Oc4ccc(F)cc4)C3)CC2)nc1 (racemic) [Example 11]
A) 0.0045

Q) Give reported Ki value for Cc1ccc(N2CCC(C(=O)N3C[C@@H](N(C)C(=O)Oc4ccc(F)cc4)[C@](C)(c4ccc(Cl)cc4)C3)CC2)nc1 (racemic) [Example 29]
A) 0.0245

Q) Give reported Ki value for CC(=O)N1CCC(C(=O)N2C[C@H](c3ccc(Cl)cc3)[C@@](C)(N(C)C(=O)Oc3ccc(F)cc3)C2)CC1 (racemic) [Example 4]
A) 0.0116

Q) Give reported Ki value for Cc1nc(-c2ccc(C(=O)N3C[C@H](c4ccc(Cl)cc4)[C@@](C)(N(C)C(=O)Oc4ccc(F)cc4)C3)cc2)no1 (racemic) [Example 17]
A) 0.0354

Q) Give reported Ki value for COc1ccc(N2CCC(C(=O)N3C[C@H](c4ccc(Cl)cc4)[C@@](C)(N(C)C(=O)Oc4ccc(F)cc4)C3)CC2)nn1 (racemic) [Example 19]
A) 0.0129
